Data credit: patent US10308628B2

Here's what we have: Ki numbers for human AT2 receptor (Homo sapiens (Human), UniProt P50052).
Answers are plain numbers, in nM.

Would you please look over these solved cases?
| test smiles | assayed target | units symbol | recorded value |
| --- | --- | --- | --- |
| O=C(O)[C@@H]1C[C@H](N2CCCOc3cc(F)ccc32)CCN1C(=O)C(c1ccccc1)c1ccccc1 | human AT2 receptor (Homo sapiens (Human), UniProt P50052) | nM | 9 |
| O=C(O)[C@@H]1C[C@H](N2CCCOc3ccccc32)CCN1C(=O)C(c1ccccc1)c1ccccc1 | human AT2 receptor (Homo sapiens (Human), UniProt P50052) | nM | 15 |
| O=C(O)[C@@H]1C[C@H](N2CCCOc3ccc(F)cc32)CCN1C(=O)C(c1ccccc1)c1ccccc1 | human AT2 receptor (Homo sapiens (Human), UniProt P50052) | nM | 17 |

Next compound, please.
For "O=C(O)[C@@H]1C[C@H](N2CCCOc3cc(F)c(F)cc32)CCN1C(=O)C(c1ccccc1)c1ccccc1" the compound record lists Ki as 7
